# Tested on: THRa homodimer (NR concentration 90 nM)
# ASSAY SUMMARY: PBM binding z-score (relative to random genomic background probes); higher = stronger binding; sequences stand for … in GC…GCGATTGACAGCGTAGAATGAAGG
READOUT NAME: PBM binding z-score
Answer with the value's number alone.

Below: 5 sequences and their reported PBM binding z-score.
> print(dat)
                       sequence.input         readout.name  value.measured
1  CCTACTGGGCCAAAGGTCATTGACTCCAATGCTC  PBM binding z-score           0.707
2  CCTACTGGGCCATACAGAGGTCATTGATCATATG  PBM binding z-score            1.47
3  ATATGTAGGTTAGTGTCATTCAGAAAGTAGGGAA  PBM binding z-score           0.558
4  CCGAGTAGGTTACGAGGAGGCATTCAGTGCGAAT  PBM binding z-score           -0.82
5  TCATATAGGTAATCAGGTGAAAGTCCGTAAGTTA  PBM binding z-score            1.51

Notebook: `CGTCAAAGTTCAAGGTAATGTAACAGAAAGCAGC` , PBM binding z-score read as 0.964

Just so you know, measured PBM binding z-score for `CTTAGTTGGTCAGGAGGTCACACACCGGATATGA` came out at 2.65

Input `CCTACTGGGCCACGAAAGGTGATTGATTCAGTGA` . Output PBM binding z-score: -0.377

Recorded values, source the supplement of paper PMC6555819.
